Every entry's value here was drawn from patent US9181214B2.

Target: human GPR119 (Homo sapiens)
Construct: expressed in transfected cells; host or cells: HEK293 (transient transfection, Lipofectamine 2000)
Test: In vitro cyclic AMP assay (Cisbio HTRF) in HEK293 cells transfected with human GPR119
Assay type: cell-based
Conditions: 1 h, % Induction @ 10 μM, cAMP, Table I
measured metric: activation at 10 µM (%)

Consider the reported activation at 10 µM for these compounds:
[[record]]
compound = "CC(C)OC(=O)N1CCC(c2nc3cc(-c4ccc(C=O)cc4)ccc3o2)CC1 [EXAMPLE-28]"
target_or_test_system = "human GPR119 (Homo sapiens)"
meas_value = 45.4

[[record]]
compound = "Cn1c(C2CCN(C(=O)OC(C)(C)C)CC2)nc2cc(-c3ccc(S(C)(=O)=O)cc3F)ccc21 [EXAMPLE-5]"
target_or_test_system = "human GPR119 (Homo sapiens)"
meas_value = 41


P = CC(C)Oc1ccc(-c2ccc3oc(C4CCN(C(=O)OC(C)(C)C)CC4)nc3c2)cc1F [EXAMPLE-22]
Q = CC(C)(C)OC(=O)N1CCC(c2nc3cc(-c4ccc(S(C)(=O)=O)cc4F)ccc3[nH]2)CC1 [EXAMPLE-2]
Query block: Looking at P and Q , which one comes out lower in activation at 10 µM terms? // return label of chosen record
Result block: Q

---

Form field: pEC50 (one value per entry).
Target: human GPR119 (Homo sapiens)
Construct: expressed in transfected cells; host or cells: HEK293 (transient transfection, Lipofectamine 2000)
Sequence (Q8TDV5 1-335): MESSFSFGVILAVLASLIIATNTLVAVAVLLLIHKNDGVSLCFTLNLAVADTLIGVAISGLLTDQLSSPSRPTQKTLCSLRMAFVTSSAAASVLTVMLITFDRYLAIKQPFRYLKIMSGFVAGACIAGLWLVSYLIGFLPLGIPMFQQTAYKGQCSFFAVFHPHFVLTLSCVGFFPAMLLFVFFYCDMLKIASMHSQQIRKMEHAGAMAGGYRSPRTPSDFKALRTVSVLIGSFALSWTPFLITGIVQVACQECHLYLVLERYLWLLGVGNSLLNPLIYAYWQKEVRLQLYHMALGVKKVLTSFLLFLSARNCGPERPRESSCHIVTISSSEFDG
Assay: In vitro cyclic AMP assay (Cisbio HTRF) in HEK293 cells transfected with human GPR119
Format: cell-based
Settings: cAMP, Table I, Emax varies between 65 to 80%
pEC50: −log10 of the molar value.

Sample answers from the record:
[[record]]
molecule_smiles = "CC(C)OC(=O)N1CCC(c2nc3cc(-c4ccc(S(C)(=O)=O)cc4F)ccc3o2)CC1"
measured_metric = "pEC50"
meas_value = "7.00 to 7.30"

[[record]]
molecule_smiles = "CC(C)(C)OC(=O)N1CCC(c2nc3cc(-c4ccc(-n5cnnn5)cc4F)ccc3o2)CC1"
measured_metric = "pEC50"
meas_value = "≥ 7.60"

[[record]]
molecule_smiles = "O=C(OC1CCC1)N1CCC(c2nc3cc(-c4ccc(-n5cnnn5)cc4F)ccc3o2)CC1"
measured_metric = "pEC50"
meas_value = "7.30 to 7.60"


Query block: Item CC(C)OC(=O)N1CCC(c2nc3ccc(-c4ccc(C(N)=O)c(F)c4)cc3o2)CC1 has what recorded pEC50?
Result block: 7.30 to 7.60

---

Target: human GPR119 (Homo sapiens)
Construct: expressed in transfected cells; host or cells: HEK293 (transient transfection, Lipofectamine 2000)
Sequence (Q8TDV5 1-335): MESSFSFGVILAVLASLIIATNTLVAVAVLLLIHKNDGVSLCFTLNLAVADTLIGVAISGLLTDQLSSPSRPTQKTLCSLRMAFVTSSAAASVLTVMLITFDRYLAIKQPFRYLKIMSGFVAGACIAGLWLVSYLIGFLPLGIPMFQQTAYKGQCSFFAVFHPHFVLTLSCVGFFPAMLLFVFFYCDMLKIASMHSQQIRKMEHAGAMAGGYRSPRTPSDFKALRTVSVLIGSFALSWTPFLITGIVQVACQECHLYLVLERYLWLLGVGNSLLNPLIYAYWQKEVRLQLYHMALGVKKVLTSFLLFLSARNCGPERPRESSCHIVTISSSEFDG
Test: In vitro cyclic AMP assay (Cisbio HTRF) in HEK293 cells transfected with human GPR119
Type: cell-based
Settings: cAMP, Table II, Emax varies between 65 to 80%
Description: A. In Vitro Cyclic AMP Assay: cAMP measurements were done using a Cisbio dynamic 2 HTRF kit (Cisbio, Bedford, Mass.) according to the manufacturer's protocol. […] After 24 h, transfected cells were harvested, counted and plated at 1000 cells/5 ul in a black 384 welled small volume plate. […] HRTF ratio was measured on a microplate reader (BMG Labtech., Germany) at an excitation wavelength of 337 nm and emission wavelengths of 665 and 620 nm with an integration time of 400 μsec. […]
Each item that follows carries a reported EC50.

The examples below pair each entry with its known result.
[[record]]
compound = "CC(C)OC(=O)N1CCC(c2ccc3oc(-c4ccc(C(F)(F)F)cc4)nc3c2)CC1 [EXAMPLE-77]"
meas_value = "50 to 250 nM"

[[record]]
compound = "CCc1cnc(N2CCC(c3ccc4oc(-c5ccc(S(C)(=O)=O)cc5F)nc4c3)CC2)nc1 [EXAMPLE-62]"
meas_value = "< 500 nM"

[[record]]
compound = "CC(C)OC(=O)N1CCC(c2ccc3oc(-c4ccc(S(C)(=O)=O)cc4F)nc3c2)CC1 [EXAMPLE-64]"
meas_value = "≤ 25 nM"

[[record]]
compound = "CC(C)(C)OC(=O)N1CCC(c2ccc3oc(-c4ccc(S(C)(=O)=O)cc4F)nc3c2)CC1 [EXAMPLE-60]"
meas_value = "25 to 50 nM"

[[record]]
compound = "CC(C)(C)OC(=O)N1CCC(c2ccc3nc(-c4ccc(S(C)(=O)=O)cc4F)oc3c2)CC1 [EXAMPLE-67]"
meas_value = "25 to 50 nM"

[[record]]
compound = "CCOC(=O)N1CCC(c2ccc3oc(-c4ccc(S(C)(=O)=O)cc4F)nc3c2)CC1 [EXAMPLE-69]"
meas_value = "25 to 50 nM"


Query block: Please state recorded EC50 (tested on human GPR119 (Homo sapiens)) of CCOC(=O)N1CCC(c2ccc3nc(-c4ccc(S(C)(=O)=O)cc4F)oc3c2)CC1 [EXAMPLE-72]
Result block: ≤ 25 nM

Query block: Repeat with CC(C)OC(=O)N1CCC(c2ccc3nc(-c4ccc(S(C)(=O)=O)cc4F)oc3c2)CC1 [EXAMPLE-71]
Result block: ≤ 25 nM

Query block: Here is the next compound: CC(C)OC(=O)N1CCC(c2ccc3sc(-c4ccc(S(C)(=O)=O)cc4F)nc3c2)CC1 [EXAMPLE-73]
Result block: 500 to 1000 nM

Query block: One more compound: CC(C)OC(=O)N1CCC(c2ccc3nc(-c4ccc(S(C)(=O)=O)cc4F)sc3c2)CC1 [EXAMPLE-76]
Result block: 50 to 250 nM

Query block: Okay, and CC(C)(C)OC(=O)N1CCC(c2ccc3oc(-c4ccc(C(F)(F)F)cc4)nc3c2)CC1 [EXAMPLE-70] ?
Result block: ≤ 25 nM

---

Target: human GPR119 (Homo sapiens, UniProt Q8TDV5)
Construct: expressed in transfected cells; host or cells: HEK293 (transient transfection, Lipofectamine 2000)
Experiment: In vitro cyclic AMP assay (Cisbio HTRF) in HEK293 cells transfected with human GPR119
Assay type: cell-based
Conditions: 1 h, % Induction @ 10 μM, cAMP, Table II
measured metric: activation at 10 µM (%)

Sample answers from the record:
[[record]]
compound = "CC(C)(C)OC(=O)N1CCC(c2ccc3[nH]c(-c4ccc(S(C)(=O)=O)cc4F)nc3c2)CC1 [EXAMPLE-57]"
target_or_test_system = "human GPR119 (Homo sapiens, UniProt Q8TDV5)"
meas_value = 47

[[record]]
compound = "CCc1cnc(N2CCC(c3ccc4oc(-c5ccc(S(C)(=O)=O)cc5F)nc4c3)CC2)nc1 [EXAMPLE-62]"
target_or_test_system = "human GPR119 (Homo sapiens, UniProt Q8TDV5)"
meas_value = 59.3

[[record]]
compound = "CC(C)COC(=O)N1CCC(c2ccc3oc(-c4ccc(S(C)(=O)=O)cc4F)nc3c2)CC1 [EXAMPLE-75]"
target_or_test_system = "human GPR119 (Homo sapiens, UniProt Q8TDV5)"
meas_value = 57.5


a = Cc1ccc(-c2nc3ccc(C4CCN(C(=O)OC(C)C)CC4)cc3o2)cc1 [EXAMPLE-78]
b = CCc1cnc(N2CCC(c3ccc4[nH]c(-c5ccc(S(C)(=O)=O)cc5F)nc4c3)CC2)nc1 [EXAMPLE-58]
Query block: Out of a and b , name the one with the higher activation at 10 µM. Answer format: the label of the selected item.
Result block: a
(a: 59.4%, b: 32.2%)

---

Target: human GPR119 (Homo sapiens, UniProt Q8TDV5)
Construct: expressed in transfected cells; host or cells: HEK293 (transient transfection, Lipofectamine 2000)
Experiment: In vitro cyclic AMP assay (Cisbio HTRF) in HEK293 cells transfected with human GPR119
Type: cell-based
Settings: 1 h, % Induction @ 10 μM, cAMP, Table I
Experimental: A. In Vitro Cyclic AMP Assay: cAMP measurements were done using a Cisbio dynamic 2 HTRF kit (Cisbio, Bedford, Mass.) according to the manufacturer's protocol. […] After 24 h, transfected cells were harvested, counted and plated at 1000 cells/5 ul in a black 384 welled small volume plate. […] HRTF ratio was measured on a microplate reader (BMG Labtech., Germany) at an excitation wavelength of 337 nm and emission wavelengths of 665 and 620 nm with an integration time of 400 μsec. […]
measured metric: activation at 10 µM (%)

1 = CC(C)OC(=O)N1CCC(c2nc3ccc(-c4ccc(C(F)F)cc4)cc3o2)CC1 [EXAMPLE-33]
2 = CC(C)OC(=O)N1CCC(c2nc3ccc(-c4ccc(C(N)=O)c(F)c4)cc3o2)CC1 [EXAMPLE-44]
Query block: Hi, I'm comparing two records. Which one has the lower activation at 10 µM, 1 or 2 ? When you have decided, please share the label of that item.
Result block: 1
(1: 10.6%, 2: 64.8%)
